Assay: Protective index, ratio of TD50 for neurotoxicity in ip dosed albino CD-1 mouse to ED50 for anticonvulsant activity in ip dosed subcutaneous pentylenetetrazole-induced seizure albino CD-1 mouse model
Assay type: toxicity, organism-based
Details: in vivo, read-out: Ratio TD50/ED50
observable: selectivity ratio

Recorded selectivity ratio, per entry:
molecule: CC1(c2ccccc2)CC(=O)N(CC(=O)N2CCN(c3ccccc3)CC2)C1=O (stereo not drawn)
result: > 12.2

molecule: CC1(c2ccccc2)CC(=O)N(CC(=O)N2CCC(Cc3ccccc3)CC2)C1=O (stereo not drawn)
result: > 8.33

For the molecule CC1(c2ccccc2)CC(=O)N(CC(=O)N2CCN(c3ccccc3Cl)CC2)C1=O (stereo not drawn) , what selectivity ratio is on record? > 4.16
